Entries annotated with measured Pre-emerge herbicidal activity, phytotoxicity rating SETVI
# Tested on: green foxtail (Setaria viridis, SETVI)
# assay: Pre-emerge test, greenhouse herbicide activity screening
# Assay type: in vivo
# assay_conditions: 250 g ai/ha; rating scale 0-100, 14 days after application
// no unit string in output, number only

Nc1c(O)c(Cl)cc(F)c1N1C(=O)C2CCCCN2C1=S (single isomer, unassigned) [12-3] = 30
CCOC(=O)C(Cl)Cc1c(OC)c(Cl)cc(F)c1-n1c(=O)cc(C(F)(F)F)n(C)c1=O (single isomer, unassigned) [Compound 14-4] = 40
COCCOC(=O)C(Cl)Cc1c(OC)c(Cl)cc(F)c1-n1c(=O)cc(C(F)(F)F)n(C)c1=O (stereo not drawn) [14-25] = 100
COc1c(Cl)cc(F)c(-n2c(=O)cc(C(F)(F)F)n(C)c2=O)c1CC(Cl)C(=O)OCC(F)(F)C(F)F (stereo not drawn) [14-22] = 0
COCCOC(=O)C(C)(Cl)Cc1c(OC)c(Cl)cc(F)c1-n1c(=O)cc(C(F)(F)F)n(C)c1=O (stereo not drawn) [14-47] = 99
CCCCOC(=O)C(C)(Cl)Cc1c(OC)c(Cl)cc(F)c1-n1c(=O)cc(C(F)(F)F)n(C)c1=O (stereo not drawn) [14-36] = 95
CCCCCCOC(=O)C(Cl)Cc1c(OC)c(Cl)cc(F)c1-n1c(=O)cc(C(F)(F)F)n(C)c1=O (single isomer, unassigned) [14-12] = 0
COc1c(Cl)cc(F)c(-n2c(=O)cc(C(F)(F)F)n(C)c2=O)c1CC(Cl)C(=O)OCC(Br)CBr (single isomer, unassigned) [14-31] = 0
COc1c(Cl)cc(F)c(-n2c(=O)cc(C(F)(F)F)n(C)c2=O)c1CC(Cl)C(=O)OCCOc1ccccc1 (single isomer, unassigned) [14-28] = 0
COc1c(Cl)cc(F)c(-n2c(=O)cc(C(F)(F)F)n(C)c2=O)c1CC(Cl)C(=O)OCCOc1ccccc1 (single isomer, unassigned) [14-27] = 0

What does the record list as Pre-emerge herbicidal activity, phytotoxicity rating SETVI for CCCOC(=O)C(Cl)Cc1c(OC)c(Cl)cc(F)c1-n1c(=O)cc(C(F)(F)F)n(C)c1=O (single isomer, unassigned) [14-6] ?
100

What does the record list as Pre-emerge herbicidal activity, phytotoxicity rating SETVI for COc1c(Cl)cc(F)c(-n2c(=O)cc(C(F)(F)F)n(C)c2=O)c1CC(Cl)C(=O)OCCC#N (stereo not drawn) [14-29] ?
0

====

Entries annotated with measured phytotoxicity rating ECHCG
# Test system: barnyardgrass (Echinochloa crus-galli, ECHCG)
# assay: Post-emerge test, greenhouse herbicide activity screening
# Format: in vivo
# assay_conditions: post-emerge, 250 g ai/ha, 14 days after application, rating scale 0-100
// no unit string in output, number only

COc1c(Cl)cc(F)c(-n2c(=O)cc(C(F)(F)F)n(C)c2=O)c1NC(=O)OCc1ccc(OC(F)(F)F)cc1 = 20
COc1c(Cl)cc(F)c(-n2c(=O)cc(C(F)(F)F)n(C)c2=O)c1NC(=O)c1ccc(C(F)(F)F)cc1 = 60
CC(C)Oc1c(Cl)cc(F)c(-n2c(=O)cc(C(F)(F)F)n(C)c2=O)c1NC(=O)c1ccc2ccccc2c1 = 20

What does the record list as phytotoxicity rating ECHCG for COc1c(Cl)cc(F)c(-n2c(=O)cc(C(F)(F)F)n(C)c2=O)c1NC(=O)c1ccc(Cl)cc1Cl ?
90

What does the record list as phytotoxicity rating ECHCG for COc1c(Cl)cc(F)c(-n2c(=O)cc(C(F)(F)F)n(C)c2=O)c1NC(=O)c1cccc2ccccc12 ?
0

What does the record list as phytotoxicity rating ECHCG for COc1c(Cl)cc(F)c(-n2c(=O)cc(C(F)(F)F)n(C)c2=O)c1NC(=O)C(C)=Cc1ccccc1 ?
90

What does the record list as phytotoxicity rating ECHCG for Cn1c(C(F)(F)F)cc(=O)n(-c2c(F)cc(Cl)c(Oc3ncccc3[N+](=O)[O-])c2NC(=O)c2ccc3ccccc3c2)c1=O ?
100

====

# Test system: velvetleaf (Abutilon theophrasti, ABUTH)
# assay: Pre-emerge test, greenhouse herbicide activity screening
# Type: in vivo
# assay_conditions: 250 g ai/ha; phytotoxicity rating 0-100, 14 days after application
readout: Pre-emerge Herbicidal Activity ABUTH
// no unit string in output, number only

Consider the following illustrative entries.
COc1c(Cl)cc(F)c(-n2c(=O)cc(C(F)(F)F)n(C)c2=O)c1NC(=O)OCc1cc(C)cc(C)c1 [4-37] = 90
CC(C)Oc1c(Cl)cc(F)c(-n2c(=O)cc(C(F)(F)F)n(C)c2=O)c1NC(=O)c1ccc2ccccc2c1 [2-197] = 100
Cn1c(C(F)(F)F)cc(=O)n(-c2ccc(Cl)cc2NC(=O)C2CC2)c1=O [2-204] = 100
COc1c(Cl)cc(F)c(-n2c(=O)cc(C(F)(F)F)n(C)c2=O)c1NC(=O)OCc1c(F)c(F)c(F)c(F)c1F [4-48] = 100
COc1c(Cl)cc(F)c(-n2c(=O)cc(C(F)(F)F)n(C)c2=O)c1NC(=O)OC(C)c1ccccc1 (centres unmarked) [4-47] = 100
Cn1c(C(F)(F)F)cc(=O)n(-c2c(F)cc(Cl)c(OCC#N)c2NC(=O)c2ccc3ccccc3c2)c1=O [2-200] = 100
COc1c(Cl)cc(F)c(-n2c(=O)cc(C(F)(F)F)n(C)c2=O)c1NC(=O)OCc1c(Cl)cccc1Cl [4-24] = 100

Next compound, please.
What does the record list as Pre-emerge Herbicidal Activity ABUTH for Cn1c(C(F)(F)F)cc(=O)n(-c2ccc(Cl)cc2NC(=O)OCc2ccccc2F)c1=O [4-49] ?
100

====

# Test system: lambsquarters (Chenopodium album, CHEAL)
# assay: Pre-emerge test, greenhouse herbicide activity screening
# Format: in vivo
# assay_conditions: pre-emerge, rate 250 g ai/ha, phytotoxicity rating 0-100 at 14 days after application
# Method: A standard greenhouse herbicide activity screening system was used to evaluate the herbicidal efficacy and crop safety of these test compounds. […] At 14 days after application of the test materials, phytotoxicity ratings were recorded. […]
Entries annotated with measured Pre-emerge Herbicidal Activity CHEAL
// no unit string in output, number only

Consider the following illustrative entries.
O=C(Nc1cc(Cl)ccc1-n1c(=O)n2n(c1=O)CCCC2)c1ccc2ccccc2c1 [9-19] = 100
C#CCOc1c(Cl)cc(F)c(-n2nnn(CCCF)c2=O)c1N [Compound 5-17] = 100

What does the record list as Pre-emerge Herbicidal Activity CHEAL for COc1c(Cl)cc(F)c(-n2ncc(C(F)(F)F)c(C)c2=O)c1NC(=O)c1ccc2ccccc2c1 [11-13] ?
100

====

# Test system: velvetleaf (Abutilon theophrasti, ABUTH)
# assay: Post-emerge test, greenhouse herbicide activity screening
# Type: in vivo
# assay_conditions: 63 g ai/ha; post-emerge; 14 days after application; rating scale 0-100
Entries annotated with measured Post-emerge Herbicidal Activity ABUTH (phytotoxicity rating)
// no unit string in output, number only

Consider the following illustrative entries.
CCOc1c(Cl)cc(F)c(-n2c(=O)cc(C(F)(F)F)n(C)c2=O)c1Cl = 40
COc1c(Cl)cc(F)c(-n2c(=O)cc(C(F)(F)F)n(C)c2=O)c1OC(=O)c1ccc2ccccc2c1 = 0
CCCOC(=O)C(Cl)Cc1c(OCC)c(Cl)cc(F)c1-n1c(=O)cc(C(F)(F)F)n(C)c1=O (centres unmarked) = 100
COc1c(Cl)cc(F)c(-n2c(=O)cc(C(F)(F)F)n(C)c2=O)c1NNC(=O)c1ccccc1 = 100
COc1c(Cl)cc(F)c(-n2c(=O)cc(C(F)(F)F)n(C)c2=O)c1NNC(=O)Oc1ccccc1 = 100
COc1c(Cl)cc(F)c(-n2c(=O)cc(C(F)(F)F)n(C)c2=O)c1NNC(=O)c1ccc2ccccc2c1 = 100

Could you share what Post-emerge Herbicidal Activity ABUTH (phytotoxicity rating) was measured for COc1c(Cl)cc(F)c(-n2c(=O)cc(C(F)(F)F)n(C)c2=O)c1NN=C1CCc2ccccc2C1 , tested on velvetleaf (Abutilon theophrasti, ABUTH)?
100

Could you share what Post-emerge Herbicidal Activity ABUTH (phytotoxicity rating) was measured for COc1c(Cl)cc(F)c(-n2c(=O)cc(C(F)(F)F)n(C)c2=O)c1NN=CCCSC , tested on velvetleaf (Abutilon theophrasti, ABUTH)?
100

====

Entries annotated with measured phytotoxicity rating DIGSA
# Test system: large crabgrass (Digitaria sanguinalis, DIGSA)
# assay: Post-emerge test, greenhouse herbicide activity screening
# Type: in vivo
# assay_conditions: post-emerge, 63 g ai/ha, 14 days after application, rating scale 0-100
// no unit string in output, number only

COc1c(Cl)cc(F)c(-n2c(=O)cc(C(F)(F)F)n(C)c2=O)c1NC(N)=O = 0
Cn1c(C(F)(F)F)cc(=O)n(-c2ccc(C(N)=S)cc2NC(=O)c2ccc3ccccc3c2)c1=O = 10
COc1c(Cl)cc(F)c(-n2c(=O)cc(C(F)(F)F)n(C)c2=O)c1NC(=O)c1ccc(F)cc1F = 0
COc1c(Cl)cc(F)c(-n2c(=O)cc(C(F)(F)F)n(C)c2=O)c1NC(=O)OCc1ccc2c(c1)OCO2 = 90

What does the record list as phytotoxicity rating DIGSA for COc1c(Cl)cc(F)c(-n2c(=O)cc(C(F)(F)F)n(C)c2=O)c1NC(=O)c1cccnc1 ?
0

What does the record list as phytotoxicity rating DIGSA for COc1c(Cl)cc(F)c(-n2c(=O)cc(C(F)(F)F)n(C)c2=O)c1NC(=O)c1ccc(Cl)cc1 ?
0

Reference source: patent US6355799B1
